Biological target: human S1P3 receptor (Homo sapiens, UniProt Q99500)
Sequence (Q99500 whole entry): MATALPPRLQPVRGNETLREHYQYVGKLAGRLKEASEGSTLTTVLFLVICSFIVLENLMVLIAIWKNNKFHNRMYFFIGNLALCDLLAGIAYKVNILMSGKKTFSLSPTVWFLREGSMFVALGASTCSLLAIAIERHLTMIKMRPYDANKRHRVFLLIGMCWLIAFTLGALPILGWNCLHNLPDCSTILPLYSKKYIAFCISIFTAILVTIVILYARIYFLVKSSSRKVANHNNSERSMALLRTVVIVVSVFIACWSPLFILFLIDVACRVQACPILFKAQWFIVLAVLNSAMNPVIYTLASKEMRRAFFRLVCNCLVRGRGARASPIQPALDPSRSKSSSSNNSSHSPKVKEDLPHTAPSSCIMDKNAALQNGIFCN
Assay: S1P3 FLIPR Ca2+ assay in T24 cells stably expressing the human S1P3 receptor
Details: tested over 0.61 nM to 10,000 nM, read-out: IC50, activity potency human S1P3 receptor from FLIPR
pIC50: −log10 of the molar value.
The following molecules are shown together with reported pIC50 values.

| MOLECULE | pIC50 |
| --- | --- |
| O=C(NC(Nc1ccc(Br)cc1)C(Cl)(Cl)Cl)c1ccc([N+](=O)[O-])cc1 (centres unmarked) | 5.84 |
| O=C(NC(Nc1ccccc1C(F)(F)F)C(Cl)(Cl)Cl)c1ccco1 (centres unmarked) | 5.85 |
| COc1ccc(C(=O)NC(Nc2ccc(C)cc2)C(Cl)(Cl)Cl)cc1 (centres unmarked) | 6.33 |
| O=C(NC(Nc1ccc(Cl)cc1)C(Cl)(Cl)Cl)c1ccc(F)c(F)c1 (centres unmarked) | 6.59 |
| O=C(NC(Nc1ccc([N+](=O)[O-])cc1)C(Cl)(Cl)Cl)c1ccc(Cl)cc1 (centres unmarked) | 5.86 |

---

Target: human S1P3 receptor (Homo sapiens)
Construct: expressed in transfected cells
Experiment: S1P3 FLIPR Ca2+ assay in T24 cells stably expressing the human S1P3 receptor
Format: cell-based
QUANTITY: % Antagonism, human S1P3 receptor from FLIPR (%)

| COMPOUND | ASSAY SYSTEM | UNIT TEXT | READING |
| --- | --- | --- | --- |
| Cc1cc(NC(NC(=O)c2ccco2)C(Cl)(Cl)Cl)ccc1F (centres unmarked) | human S1P3 receptor (Homo sapiens) | % | 99 |
| O=C(NC(Nc1ccc(Cl)cc1)C(Cl)(Cl)Cl)c1ccc(Br)o1 (centres unmarked) | human S1P3 receptor (Homo sapiens) | % | 95 |
| O=C(NC(Nc1ccc(F)cc1)C(Cl)(Cl)Cl)c1ccco1 (centres unmarked) | human S1P3 receptor (Homo sapiens) | % | 99 |
| Cc1ccc(NC(NC(=O)c2ccc(Br)cc2)C(Cl)(Cl)Cl)cc1 (centres unmarked) | human S1P3 receptor (Homo sapiens) | % | 100 |
| O=C(NC(Nc1ccc(Cl)cc1)C(Cl)(Cl)Cl)c1ccc(Br)nc1 (centres unmarked) | human S1P3 receptor (Homo sapiens) | % | 97 |
| O=C(NC(Nc1ccc(Br)cc1)C(Cl)(Cl)Cl)c1ccco1 (centres unmarked) | human S1P3 receptor (Homo sapiens) | % | 98 |
| O=C(NC(Nc1ccc([N+](=O)[O-])cc1)C(Cl)(Cl)Cl)c1ccc(Cl)cc1 (centres unmarked) | human S1P3 receptor (Homo sapiens) | % | 93 |
| O=C(NC(Nc1ccc(Cl)cc1)C(Cl)(Cl)Cl)c1ccc(Cl)cc1 (centres unmarked) | human S1P3 receptor (Homo sapiens) | % | 100 |
| O=C(NC(Nc1ccccc1)C(Cl)(Cl)Cl)c1ccc(Br)cc1 (centres unmarked) | human S1P3 receptor (Homo sapiens) | % | 97 |
| O=C(NC(Nc1ccc(Cl)cc1)C(F)(F)F)c1ccc(Br)cn1 (centres unmarked) | human S1P3 receptor (Homo sapiens) | % | 99 |
| O=C(NC(Nc1cccc(F)c1)C(Cl)(Cl)Cl)c1ccco1 (centres unmarked) | human S1P3 receptor (Homo sapiens) | % | 100 |
| O=C(NC(Nc1ccccc1F)C(Cl)(Cl)Cl)c1ccco1 (centres unmarked) | human S1P3 receptor (Homo sapiens) | % | 98 |
| O=C(NC(Nc1ccc(Cl)cc1)C(Cl)(Cl)Cl)c1cccc(Cl)c1 (centres unmarked) | human S1P3 receptor (Homo sapiens) | % | 94 |
| COc1ccc(C(=O)NC(Nc2ccc(C)cc2)C(Cl)(Cl)Cl)cc1 (centres unmarked) | human S1P3 receptor (Homo sapiens) | % | 98 |

Reference source: patent US8049037B2
